For each record, write down the corresponding melting point.
Numbers only, in °C.

List reported melting point for each of these compounds:
1. Oc1ccc2ccc(O)cc2c1
2. CCCS(=O)(=O)CCC
3. O=C1CC(=P(c2ccccc2)(c2ccccc2)c2ccccc2)C(=O)O1
4. NC(=O)n1c(C2CCCCC2)nn(-c2ccccc2)c1=O

[reply]
193
29.5
167
198

###

VALUE KIND: melting point (°C)
Answers are plain numbers, in °C.

Reported melting point for "CC(=O)c1ccc(NC(N)=S)cc1" was 215

Reported melting point for "Nc1ccnc(Br)c1" was 98

Reported melting point for CC(C)(C)SC1(C#N)CC1(C#N)SC(C)(C)C (stereo unspecified) was 104

Reported melting point for C[C@]12CCC(=O)C(Br)[C@H]1CC[C@@H]1[C@@H]2CC[C@]2(C)C(O)CC[C@@H]12 (stereo partly specified) was 143

Reported melting point for CCOC(=O)C(C)(C)C1(O)CCC2(C)C(CCC3C2CCC2(C)C(OCc4ccccc4)CCC32)C1 (stereo unspecified) was 147

Reported melting point for "O=C1N(c2ccccc2)N(c2ccccc2/N=N\c2ccccc2)C1(c1ccccc1)c1ccccc1" was 163

List reported melting point for each of these molecules:
1. c1ccc2c(c1)Sc1ccccc1N2CC1CN2CCC1CC2 (stereo unspecified)
2. COc1ccc(C(=O)c2ccc(OC)cc2)cc1

[reply]
130
144

###

For each record, write down the corresponding melting point.
Give bare numbers, in °C.

Guide cases for melting point, answers given:
Reported melting point for "N#Cc1cc(O)cc(O)c1" was 188

Reported melting point for CC1CCC(C)(COC(=S)Nc2ccccc2)C1(C)C (stereo not given) was 101

Reported melting point for "CC1(C)CC2(CC(C)(C)c3cc(O)c(O)cc32)c2cc(O)c(O)cc21" was 300

Reported melting point for "Cc1cccc(N/N=C(\C#N)c2nc(C)c(/N=N/c3ccccc3)s2)c1" was 211

List reported melting point for each of these compounds:
1. Nc1ccccc1NC(C(=O)Nc1ccccc1)(c1ccccc1)c1ccccc1
2. CCOC(=O)c1nn(-c2ccc(C)cc2)c(C)c1C(=O)c1noc(-c2ccc(Cl)cc2)c1S(=O)(=O)c1ccccc1
3. CC(=O)OC1=C(C(C)C)C(=O)C2=C(C1=O)C1(C)CCCC(C)(C)C1C(OC(C)=O)C2OC(C)=O (stereo not given)
4. O=NN1CCc2ccccc21

[reply]
1: 160; 2: 230; 3: 89; 4: 83

###

For each record, write down the corresponding melting point.
One number for each entry, in °C.

Guide cases for melting point, answers given:
Reported melting point for CCCOC(=O)C1=C(C)NC(=S)NC1c1cccc([N+](=O)[O-])c1 (stereo unspecified) was 209

Reported melting point for "[O-][N+](=Nc1ccc(N=Nc2ccccc2)cc1)c1ccc(N=Nc2ccc(N=Nc3ccccc3)cc2)cc1" was 253

Reported melting point for O=C(O)C(Cc1ccc([N+](=O)[O-])cc1)c1ccccc1 (stereo unspecified) was 152

List reported melting point for each of these molecules:
1. CCCCCCCCCCCC(=O)OCc1ccccc1
2. Cc1cccc(Nc2ccncc2S(=O)(=O)NC(=O)NC(C)C)c1
3. CN1C(=O)C(=NNC(N)=S)c2ccccc21
4. COc1c2ccoc2cc2oc(C)cc(=O)c12

[reply]
1. 8.5
2. 163
3. 245
4. 144

###

Each entry gets FALSE if its melting point stays under 100 °C, and TRUE if its melting point is 100 °C or above.

Below, 4 molecules whose answers are already recorded.
[ask] Test whether the molecule "CCOC(=O)CSc1sc(C(=O)OCC)c(N)c1C#N" records melting point of 100 °C or higher.
[reply] TRUE

[ask] Test whether the molecule "O=C(O)C=CCCl" records melting point of 100 °C or higher.
[reply] FALSE

[ask] Test whether the molecule "C=C(C)CC1(CC)C(=O)NC(=S)NC1=O" records melting point of 100 °C or higher.
[reply] TRUE

[ask] Test whether the molecule CCCCC(=O)OCC(=O)C1(O)Cc2c(O)c3c(c(O)c2C(OC2CC(NC(=O)C(F)(F)F)C(O)C(C)O2)C1)C(=O)c1c(OC)cccc1C3=O (stereo not given) records melting point of 100 °C or higher.
[reply] TRUE

Others:
[ask] Test whether the molecule "NC[C@H]1CC[C@H](C(=O)O)CC1" records melting point of 100 °C or higher.
[reply] TRUE

[ask] Test whether the molecule COc1ccc(Br)cc1CC(NC(=O)OC(C)(C)C)C(=O)O (stereo not given) records melting point of 100 °C or higher.
[reply] TRUE

[ask] Test whether the molecule "Cc1nc(-c2ccc(C#N)cc2)cs1" records melting point of 100 °C or higher.
[reply] TRUE

[ask] Test whether the molecule "CC/C=C/CCO" records melting point of 100 °C or higher.
[reply] FALSE

[ask] Test whether the molecule O=C(Nc1ccccc1)OC1CCCCC(OC(=O)Nc2ccccc2)C1 (stereo not given) records melting point of 100 °C or higher.
[reply] TRUE

[ask] Test whether the molecule "CCC(CC)Nc1c([N+](=O)[O-])cc(C)c(C)c1[N+](=O)[O-]" records melting point of 100 °C or higher.
[reply] FALSE

[ask] Test whether the molecule "CC(C)(C)C1=NNC(=O)C1" records melting point of 100 °C or higher.
[reply] TRUE

[ask] Test whether the molecule "Oc1ccc(Nc2ccc(O)cc2)cc1" records melting point of 100 °C or higher.
[reply] TRUE

[ask] Test whether the molecule "C=C(C)C(=O)OCCCC" records melting point of 100 °C or higher.
[reply] FALSE

[ask] Test whether the molecule "c1coc(CSSCc2ccco2)c1" records melting point of 100 °C or higher.
[reply] FALSE

[ask] Test whether the molecule "O=Cc1ccnc(Cl)c1" records melting point of 100 °C or higher.
[reply] FALSE

###

VALUE KIND: melting point (°C)
Give bare numbers, in °C.

Reported melting point for "CC(C)(Sc1cc(C(C)(C)C)c(O)c(C(C)(C)C)c1)Sc1cc(C(C)(C)C)c(O)c(C(C)(C)C)c1" was 125

Reported melting point for "CCCCCCCOC(C)=O" was -50.2

Reported melting point for "Nc1c(Oc2ccccc2)c(Oc2ccccc2)c(N)c2c1C(=O)c1ccccc1C2=O" was 195

Reported melting point for CCOc1ccc(C(C)O)cc1 (stereo not given) was 47

Reported melting point for "C[Si](C)(C)C#N" was 11

Reported melting point for "CCOC(=O)c1cc2cc3ccccc3cc2cc(C(=O)OCC)c1=O" was 161

Reported melting point for "Nc1cccc(C(c2cccc(N)c2)(C(F)(F)F)C(F)(F)F)c1" was 86

Reported melting point for "CCOC(=O)c1c(C)[nH]c(=O)[nH]c1=S" was 150

Reported melting point for "CC(C)(Cl)CCC(C)(C)Cl" was 67.5

Reported melting point for CCCCCCCCCCCCCCCCCC(=O)OCC(O)CO (stereo not given) was 74

List reported melting point for each of these compounds:
1. O=c1[nH]ncc2ccccc12
2. COc1cc(C=C2SC(=S)N(CNc3ccc([N+](=O)[O-])cc3)C2=O)ccc1O
3. CC(C)C1=CC2=C(CC1)C1(C)CCCC(C)(C(=O)O)C1CC2 (stereo not given)
4. CC(CC(=O)O)C1CCC2C3CCC4CCCCC4(C)C3CCC12C (stereo not given)

[reply]
[188, 195, 164, 177]

List reported melting point for each of these compounds:
1. CCOc1ccc2c3c1OC1C(O)C=CC4C(C2)N(C)CCC341 (stereo not given)
2. CN(C)c1nnc(Br)c(-c2nc(N(C)C)nnc2Br)n1
3. CC(=O)NCCc1ccccc1[N+](=O)[O-]
4. CC1CS1 (stereo not given)
5. CC(=O)Oc1cccc(C#N)c1
6. BrCOCBr

[reply]
1. 200
2. 123
3. 94
4. -91
5. 60
6. -34

Reported melting point for Cc1ccc(C(O)(c2ccc(C)cc2)C2(C)CCC(C(=O)O)C(C)(C)O2)cc1 (stereo not given) was 152

###

For each record, write down the corresponding melting point.
Answers are plain numbers, in °C.

Reported melting point for "N#CC1CCCCC1" was 11

Reported melting point for "O=C1NC(=S)NC(=O)C1=NNc1ccccc1" was 290

Reported melting point for "CCOC(=O)c1ccccc1N=C=O" was 29

List reported melting point for each of these compounds:
1. COc1ccc(C=O)cc1Br
2. c1ccc(-c2nc3ccccc3o2)cc1

[reply]
1. 51
2. 103

###

For each record, write down the corresponding melting point.
Give bare numbers, in °C.

List reported melting point for each of these compounds:
1. CCN(CC)S(=O)(=O)c1ccc(C(=O)O)cc1
2. c1ccc(C2CCc3ccccc3O2)cc1 (configuration not stated)
3. COc1ccc(F)c(F)c1O

[reply]
[193, 46.3, 46]

###

VALUE KIND: melting point (°C)
Numbers only, in °C.

Guide cases for melting point, answers given:
Reported melting point for "Clc1cc(Cl)cc(Br)c1" was 83

Reported melting point for "Clc1cc2oc3cc(Cl)c(Cl)cc3c2cc1Cl" was 227

Reported melting point for "CC1=CC(=C(C#N)C#N)C=C(C=Cc2ccc(N(C)C)cc2)O1" was 212

Reported melting point for C=CC12CN(C)C3C4COC(CC41)C1(C(=O)Nc4ccccc41)C32 (stereo not drawn) was 178

Reported melting point for COc1cc(O)c2c(c1)OC(c1ccc(O)cc1)CC2=O (stereo not drawn) was 152

List reported melting point for each of these compounds:
1. CCc1cc(C)cc(O)c1
2. O=C(OCC(O)CO)c1ccccc1Nc1ccnc2cc(Cl)ccc12 (stereo not drawn)
3. O=C(O)c1cc2ccccc2[nH]1

[reply]
[51.6, 170, 206]
